System: HIV-1 IIIB (T-tropic, CXCR4 utilizing)
experiment-description: HOS HIV-1 infectivity assay
Type: cell-based
conditions: Human immunodeficiency virus 1; HIV-1 IIIB, HOS cells, 96 h, luciferase readout; read-out: HOS (3B)
Below, each entry is listed with its recorded IC50.

compound | IC50 (nM)
CCN(Cc1nc2cccc(C(=O)NCCCN)c2[nH]1)C1CCCc2cccnc21 (centres unmarked) | 141
CN(Cc1nc2c(C(=O)NCCc3c[nH]cn3)cccc2n1C)C1CCCc2cccnc21 (centres unmarked) | 56
CN1CCN(c2cccc3nc(CN(C)C4CCCc5cccnc54)[nH]c23)CC1 (centres unmarked) | 1.6
CN(Cc1nc2c(C(=O)N3CCC(N)C3)cccc2[nH]1)C1CCCc2cccnc21 (centres unmarked) | 22
CN(Cc1nc2c(CNCCc3c[nH]cn3)cccc2[nH]1)C1CCCc2cccnc21 (centres unmarked) | 45
CN(Cc1nc2c(C(=O)NCCc3cn(C)cn3)cccc2[nH]1)C1CCCc2cccnc21 (centres unmarked) | 22
CCN(Cc1nc2cccc(C(=O)NCCCCN)c2[nH]1)C1CCCc2cccnc21 (centres unmarked) | 238
CN(Cc1nc2c(CN3CCNCC3)cccc2[nH]1)C1CCCc2cccnc21 (centres unmarked) | 13
CN(Cc1nc2cccc(C(=O)NCCc3cnc[nH]3)c2[nH]1)C1CCCc2cccnc21 (centres unmarked) | 18
CN(Cc1nc2cccc(C(=O)N3CCNCC3)c2n1C)C1CCCc2cccnc21 (centres unmarked) | 43
CCN(Cc1nc2cc(C(=O)NCCc3cnc[nH]3)ccc2[nH]1)C1CCCc2cccnc21 (centres unmarked) | 179
CN(Cc1nc2cccc(C(=O)N3CCNCC3)c2[nH]1)C1CCCc2cccnc21 (centres unmarked) | 46
CN1CCN(C(=O)c2cccc3[nH]c(CN(C)C4CCCc5cccnc54)nc23)CC1 (centres unmarked) | 331
CN(Cc1nc2c(C(=O)NCCN)cccc2[nH]1)C1CCCc2cccnc21 (centres unmarked) | 27
CN(Cc1nc2c(C(=O)NCCCN3CCCC3)cccc2[nH]1)C1CCCc2cccnc21 (centres unmarked) | 44
CN(Cc1nc2c(C(N)=O)cccc2[nH]1)C1CCCc2cccnc21 (centres unmarked) | 143
CCN(Cc1nc2cc(C(=O)NCCN)ccc2[nH]1)C1CCCc2cccnc21 (centres unmarked) | 440
CN(Cc1nc2c(N3CCNCC3)cccc2[nH]1)C1CCCc2cccnc21 (centres unmarked) | 6.2
CN(Cc1nc2cccc(C(=O)NCCCCN)c2[nH]1)C1CCCc2cccnc21 (centres unmarked) | 395
CN(Cc1nc2c(C(=O)N3CCC(N)CC3)cccc2[nH]1)C1CCCc2cccnc21 (centres unmarked) | 75
CN(Cc1nc2cc(CNCCCN)ccc2[nH]1)C1CCCc2cccnc21 (centres unmarked) | 160
CN(Cc1nc2c(C(=O)N3CCNCC3)cccc2n1C)C1CCCc2cccnc21 (centres unmarked) | 840
CN(Cc1nc2cc(CN)ccc2[nH]1)C1CCCc2cccnc21 (centres unmarked) | 1360
CN(Cc1nc2cc(CNCC3CCNCC3)ccc2[nH]1)C1CCCc2cccnc21 (centres unmarked) | 167
CC(C)CN1CCN(c2cccc3[nH]c(CN(C)C4CCCc5cccnc54)nc23)CC1 (centres unmarked) | 50
CN(Cc1nc2cccc(C(=O)NCCc3c[nH]cn3)c2n1C)C1CCCc2cccnc21 (centres unmarked) | 8
